Taken from ChEMBL document CHEMBL4480404.

# methodSummary: Lipophilicity, log D of the compound at pH 7.4
# Assay type: physicochemical
# assaySetup: buffer, read-out: logD
readoutKind: logD

# count of solved cases: 2
{"compound": "CC(C)CCCC(C)CCOc1ccnc(NC(P(=O)(O)O)P(=O)(O)O)c1 (stereo unspecified)", "logD": -1.63}
{"compound": "CC(C)CCCC(C)CCCc1cccc(NCC(P(=O)(O)O)P(=O)(O)O)n1 (stereo unspecified)", "logD": -2}

Exercise: // logD lookup, key: CC(C)CCCC(C)CCOc1cccc(NCC(P(=O)(O)O)P(=O)(O)O)n1 (stereo unspecified)
Solution: -2.24

Exercise: Then this compound: CC(C)CCCC(C)CCCC(C)CCOc1ccc[n+](CC(P(=O)([O-])O)P(=O)(O)O)c1 (stereo unspecified)
Solution: -3.48

Exercise: Then this compound: CC(C)CCCC(C)CCOc1ccnc(NCC(P(=O)(O)O)P(=O)(O)O)c1 (stereo unspecified)
Solution: -2.31

Exercise: Then this compound: CC(C)CCCC(C)CCCC(C)CCCC(C)CCOc1ccc[n+](CC(P(=O)([O-])O)P(=O)(O)O)c1 (stereo unspecified)
Solution: -1.85

Exercise: Then this compound: CC(C)CCCC(C)c1cnc(NCC(P(=O)(O)O)P(=O)(O)O)s1 (stereo unspecified)
Solution: -2.96

Exercise: Then this compound: CCCCCCCCCCCCCc1ccc[n+](CC(P(=O)([O-])O)P(=O)(O)O)c1 (stereo unspecified)
Solution: -3.65

Exercise: Then this compound: CC(C)CCCC(C)CCc1cnc(NCC(P(=O)(O)O)P(=O)(O)O)s1 (stereo unspecified)
Solution: -2.12

Exercise: Then this compound: CC(C)CCCC(C)CCc1csc(NCC(P(=O)(O)O)P(=O)(O)O)n1 (stereo unspecified)
Solution: -2.36

Exercise: Then this compound: CC(C)CCCC(C)CCOc1cc(NCC(P(=O)(O)O)P(=O)(O)O)ccn1 (stereo unspecified)
Solution: -3.1

###

EC50 values by entry
# Tested on: Candida albicans
# methodSummary: microbe, parasite or virus in culture
# Type: functional
# assaySetup: CAI-4, 12 h, read-out: ED50 (the source's name)

{"molecule": "O=P([O-])(O)C(C[n+]1ccc(-c2ccc3oc4ccccc4c3c2)cc1)P(=O)(O)O (stereo unspecified)", "EC50": "> 50 µg/mL"}
{"molecule": "O=P(O)(O)C(O)(Cc1cccc(-c2cccc3c2oc2ccccc23)c1)P(=O)(O)O", "EC50": "> 50 µg/mL"}

Exercise: Find EC50 (Candida albicans) for the entry CCCCCCCCOc1cccc(C(=O)Nc2ccc(F)cc2C(=O)O)c1
Solution: > 50 µg/mL

Exercise: Then this molecule: O=P([O-])(O)C(Cn1cc[n+](CCCc2ccc(F)c(F)c2)c1)P(=O)(O)O (stereo unspecified)
Solution: 2 µg/mL

Exercise: Then this molecule: CCCCCCCCCCOc1ccc[n+](CC(P(=O)([O-])O)P(=O)(O)O)c1 (stereo unspecified)
Solution: > 50 µg/mL

Exercise: Then this molecule: CCCCCCCCCCCCCCOc1cccc(O)c1C(=O)O
Solution: > 50 µg/mL

###

GI50 at 24 h values by entry
# methodSummary: Growth inhibition of HEK293 cells after 24 hrs by MTT assay
# Format: cell-based
# assaySetup: human, read-out: ED50
Hi! Could you send only the number? It should be in µM, unit omitted.

{"compound": "CC(C)CCCC(C)CCOc1ccnc(NC(P(=O)(O)O)P(=O)(O)O)c1 (stereo not given)", "measurementUnits": "µM", "GI50 at 24 h": 1300}
{"compound": "CC(C)CCCC(C)CCCc1cccc(NCC(P(=O)(O)O)P(=O)(O)O)n1 (stereo not given)", "measurementUnits": "µM", "GI50 at 24 h": 1100}
{"compound": "CC(C)CCCC(C)CCCc1ccc[n+](CC(P(=O)([O-])O)P(=O)(O)O)c1 (stereo not given)", "measurementUnits": "µM", "GI50 at 24 h": 460}
{"compound": "CC(C)CCCC(C)CCOc1ccc[n+](CC(P(=O)([O-])O)P(=O)(O)O)c1 (stereo not given)", "measurementUnits": "µM", "GI50 at 24 h": 620}
{"compound": "CC(C)CCCC(C)CCn1cc[n+](CC(P(=O)([O-])O)P(=O)(O)O)c1 (stereo not given)", "measurementUnits": "µM", "GI50 at 24 h": 420}

Exercise: // GI50 at 24 h lookup, key: CC(C)CCCC(C)CCOc1ccc[n+](CC(O)(P(=O)([O-])O)P(=O)(O)O)c1 (stereo not given)
Solution: 1100

Exercise: Then this compound: CC(C)CCCC(C)CCSc1ccc[n+](CC(P(=O)([O-])O)P(=O)(O)O)c1 (stereo not given)
Solution: 510

Exercise: Then this compound: CCCCCCCCCCCc1ccc[n+](CC(P(=O)([O-])O)P(=O)(O)O)c1 (stereo not given)
Solution: 220

Exercise: Then this compound: O=P([O-])(O)C(Cn1cc[n+](CCCc2ccc(F)c(F)c2)c1)P(=O)(O)O (stereo not given)
Solution: 600

Exercise: Then this compound: CC(C)CCCC(C)CCNc1ccc[n+](CC(P(=O)([O-])O)P(=O)(O)O)c1 (stereo not given)
Solution: 440

###

# experimentalTarget: Farnesyl pyrophosphate synthase (Homo sapiens)
# Sequence (P14324 whole entry): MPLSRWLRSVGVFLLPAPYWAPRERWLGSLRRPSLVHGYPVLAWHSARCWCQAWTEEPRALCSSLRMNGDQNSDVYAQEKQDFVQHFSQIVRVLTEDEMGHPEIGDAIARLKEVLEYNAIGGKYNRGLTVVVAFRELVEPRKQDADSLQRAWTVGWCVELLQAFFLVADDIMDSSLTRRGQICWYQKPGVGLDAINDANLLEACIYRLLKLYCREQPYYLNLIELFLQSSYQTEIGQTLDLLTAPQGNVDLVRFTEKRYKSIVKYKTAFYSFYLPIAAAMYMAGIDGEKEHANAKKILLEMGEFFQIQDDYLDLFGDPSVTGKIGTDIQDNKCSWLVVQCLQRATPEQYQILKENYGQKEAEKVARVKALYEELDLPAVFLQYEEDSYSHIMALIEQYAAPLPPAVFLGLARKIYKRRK
# methodSummary: Inhibition of human FPPS using IPP and GPP
IC50 values by entry
Hi! Could you send only the number? It should be in µM, unit omitted.

{"molecule": "CC(C)CCCC(C)CCOc1ccc[n+](CC(P(=O)([O-])O)P(=O)(O)O)c1 (configuration not stated)", "measurementUnits": "µM", "measuredNumber": 0.23}

As a next step, examine the molecule that follows.
Exercise: // IC50 lookup, key: CCCCCCCCCCOc1cccc(CC(O)(P(=O)(O)O)P(=O)(O)O)c1
Solution: 550

###

logD values by entry
# methodSummary: Lipophilicity, log D of the compound at pH 7.4
# Type: physicochemical
# assaySetup: buffer
Answer field: number only, no words.

# count of solved cases: 6
{"molecule": "CC(C)CCCC(C)CCCc1ccc[n+](CC(P(=O)([O-])O)P(=O)(O)O)c1 (configuration not stated)", "measuredNumber": -4.71}
{"molecule": "CC(C)CCCC(C)CCSc1ccc[n+](CC(P(=O)([O-])O)P(=O)(O)O)c1 (configuration not stated)", "measuredNumber": -5.09}
{"molecule": "CC(C)CCCC(C)CCCc1cc[n+](CC(P(=O)([O-])O)P(=O)(O)O)cc1 (configuration not stated)", "measuredNumber": -4.71}
{"molecule": "CCCCCCCCCCCc1ccc[n+](CC(P(=O)([O-])O)P(=O)(O)O)c1 (configuration not stated)", "measuredNumber": -4.07}
{"molecule": "CC(C)CCCC(C)CCOc1cc[n+](CC(P(=O)([O-])O)P(=O)(O)O)cc1 (configuration not stated)", "measuredNumber": -5.82}
{"molecule": "CC(C)CCCC(C)CCCn1cc[n+](CC(P(=O)([O-])O)P(=O)(O)O)c1 (configuration not stated)", "measuredNumber": -5.65}

As a next step, examine the molecule that follows.
Exercise: // logD lookup, key: CC(C)CCCC(C)CCSc1cc[n+](CC(P(=O)([O-])O)P(=O)(O)O)cc1 (configuration not stated)
Solution: -5.08

###

GI50 at 24 h values by entry
# methodSummary: Growth inhibition of HEK293 cells after 24 hrs by MTT assay
# Assay type: cell-based
# assaySetup: human, read-out: ED50
Hi! Could you send only the number? It should be in µM, unit omitted.

# count of solved cases: 4
{"compound": "CC(C)CCCC(C)CCOc1cc(NCC(P(=O)(O)O)P(=O)(O)O)ccn1 (stereo unspecified)", "GI50 at 24 h (µM)": 1200}
{"compound": "CC(C)CCCC(C)CCCn1cc[n+](CC(P(=O)([O-])O)P(=O)(O)O)c1 (stereo unspecified)", "GI50 at 24 h (µM)": 440}
{"compound": "CCCCCCCCCCCCCc1ccc[n+](CC(P(=O)([O-])O)P(=O)(O)O)c1 (stereo unspecified)", "GI50 at 24 h (µM)": 48}
{"compound": "CC(C)CCCC(C)CCCc1cc[n+](CC(P(=O)([O-])O)P(=O)(O)O)cc1 (stereo unspecified)", "GI50 at 24 h (µM)": 700}

As a next step, examine the compound that follows.
Exercise: // GI50 at 24 h lookup, key: CC(C)CCCC(C)CCSc1cc[n+](CC(P(=O)([O-])O)P(=O)(O)O)cc1 (stereo unspecified)
Solution: 1000

###

# methodSummary: Inhibition of Escherichia coli OPPS using IPP as substrate
readoutKind: pIC50
Scale: pIC50 equals -log10([C]), with [C] in mol/L.

Exercise: // pIC50 lookup, key: CCCCCCCCCCOc1cccc(CC(O)(P(=O)(O)O)P(=O)(O)O)c1
Solution: 4.96
